# assayInfo: Volume of distribution at steady state in rat at 0.5 mg/kg, iv
# Type: ADME, organism-based
# Parameters: dose 0.5 mg/kg, route intravenous
# experimentalParameters: in vivo, read-out: Vdss
parameterMeasured: Vd (L/kg)
Answer with a number only, understood to be in L/kg.

Lookup: I would be grateful if you could share the reported Vd for "Cn1nc(-c2ccncc2)cc1NC(=O)[C@H](Cc1ccccc1)NCC(=O)O" .
Found: 0.29

----------
# assayInfo: Tmax in cynomolgus monkey at 10 mg/kg, po
# Assay type: ADME, organism-based, Macaca fascicularis
# Design: dose 10 mg/kg, route oral
# experimentalParameters: in vivo
parameterMeasured: Tmax

Lookup: I would be grateful if you could share the reported Tmax for "Cn1nc(-c2ccncc2)cc1NC(=O)[C@H](Cc1ccccc1)NCC(=O)O" .
Found: 4 h
